- System: constitutively GA-deficient transgenic dwarf soybean line 719
- Test Details: Field trial of seed coating application rates, GA-deficient soybean
- Type: in vivo, Glycine max
- Study Conditions: 10 μg compound per seed, seed coating
Measured Endpoint: 719 Height, cm, Heavy soil

# Molecule, 719 Height, cm, Heavy soil
measured = [
    ("C=C1C[C@]23C[C@H]1CC[C@H]2[C@]1(C)CCC[C@@](C)(C(=O)O)[C@H]1[C@@H]3C(=O)O", "3.0 f-i cm"),
]

Respectfully, I request 719 Height, cm, Heavy soil for each entry included below.
1. C=C1C[C@]23C[C@@]1(O)CC[C@H]2[C@@]12C=C[C@H](O)[C@@](C)(C(=O)O1)[C@H]2[C@@H]3C(=O)O
2. C=C1C[C@]23C[C@@]1(O)CC[C@H]2[C@@]12CC=C[C@@](C)(C(=O)O1)[C@H]2[C@@H]3C(=O)O
3. C=C1C[C@]23C[C@H]1CC[C@H]2[C@@]12CCC[C@@](C)(C(=O)O1)[C@H]2[C@@H]3C(=O)O
4. C=C1C[C@]23C[C@@]1(O)CC[C@H]2[C@@]12C=C[C@H](OC(C)=O)[C@@](C)(C(=O)O1)[C@H]2[C@@H]3C(=O)O [GA3-3-acetate]

[A]
1: 10.3 a cm; 2: 7.3 bc cm; 3: 4.0 d-i cm; 4: 9.0 ab cm

* * *

- Test Details: Half-lives of 14C-labelled GA compounds in soil
- Study Conditions: spinks soil, aerobic, 25° C., darkness; read-out: Half-life (days) in soil (converted)
Measured Endpoint: half-life (days)
One number for each entry, in days.

For C=C1C[C@]23C[C@@]1(O)CC[C@H]2[C@@]12C=C[C@H](O)[C@@](C)(C(=O)O1)[C@H]2[C@@H]3C(=O)O the compound record lists half-life as 0.5

* * *

- Tested on: wild-type soybeans (line A3237)
- Test Details: Summary of first two greenhouse experiments, elongation of wild-type soybeans
- Study Conditions: 0.025 mg/ml solution (ethanol-water)
Measured Endpoint: Elongation of wild-type soybeans

# Smiles Record, Measured Endpoint, Value Observed
records = [
    ("C=C1C[C@]23C[C@@]1(O)CC[C@H]2[C@@]12CC=C[C@@](C)(C(=O)O1)[C@H]2[C@@H]3C(=O)O", "Elongation of wild-type soybeans", 0),
    ("C=C1C[C@]23C[C@@]1(O)CC[C@H]2[C@@]12CC[C@H](O)[C@@](C)(C(=O)O1)[C@H]2[C@@H]3C(=O)O", "Elongation of wild-type soybeans", "+"),
    ("C=C1C[C@]23C[C@H]1CC[C@H]2[C@]1(C)CCC[C@@](C)(C(=O)O)[C@H]1[C@@H]3C(=O)O", "Elongation of wild-type soybeans", "−"),
    ("C=C1C[C@@]23CC[C@H]4[C@@](C)(CCC[C@@]4(C)C(=O)O)[C@@H]2CC[C@@H]1C3", "Elongation of wild-type soybeans", 0),
    ("C=C1C[C@]23C[C@@]1(O)CC[C@H]2[C@@]12CCC[C@@](C)(C(=O)O1)[C@H]2[C@@H]3C(=O)O", "Elongation of wild-type soybeans", "+"),
]

Lab entry: wild-type soybeans (line A3237) assay, compound C=C1C[C@]23C[C@@]1(O)CC[C@H]2[C@@]12C=C[C@H](O)[C@@](C)(C(=O)O1)[C@H]2[C@@H]3C(=O)O , Elongation of wild-type soybeans = +

* * *

- Test Details: Concentration of 14C-GA3 in germinating soybean seedlings after seed treatment
- Assay type: in vivo, Glycine max
- Study Conditions: Asgrow 3237, soybean (Glycine max), seedling axis, other: seed treatment applied to the hilum; ^14C-GA3 applied to the hilum at 20 ppm; one day after planting; read-out: calculated concentration of GA3 delivered to the seedling axis
Measured Endpoint: concentration at 1 day after planting (µM)
Give bare numbers, in µM.

For C=C1C[C@]23C[C@@]1(O)CC[C@H]2[C@@]12C=C[C@H](O)[C@@](C)(C(=O)O1)[C@H]2[C@@H]3C(=O)O the compound record lists concentration at 1 day after planting as 4.31

* * *

Kindly state No. A4922 Emerged, Heavy soil for each of the entries shown.
- Test system: wild-type soybean line A4922
- Test Details: Field trial of seed coating application rates, wild-type soybean
- Study Conditions: 0.1 μg compound per seed

Illustrative cases are given below, each with its answer.
# Smiles Record, Measured On, No. A4922 Emerged, Heavy soil
measured = [
    ("C=C1C[C@]23C[C@H]1CC[C@H]2[C@@]12CCC[C@@](C)(C(=O)O1)[C@H]2[C@@H]3C(=O)O", "wild-type soybean line A4922", "41.0 a-d"),
    ("C=C1C[C@]23C[C@H]1CC[C@H]2[C@]1(C)CCC[C@@](C)(C(=O)O)[C@H]1[C@@H]3C(=O)O", "wild-type soybean line A4922", "24.3 g·days"),
    ("C=C1C[C@]23C[C@@]1(O)CC[C@H]2[C@@]12CC=C[C@@](C)(C(=O)O1)[C@H]2[C@@H]3C(=O)O", "wild-type soybean line A4922", "32.3 b-g"),
]

For the next question, use this compound.
For C=C1C[C@]23C[C@@]1(O)CC[C@H]2[C@@]12C=C[C@H](O)[C@@](C)(C(=O)O1)[C@H]2[C@@H]3C(=O)O the compound record lists No. A4922 Emerged, Heavy soil as 28.0 c-g

* * *

- Tested on: constitutively GA-deficient transgenic dwarf soybean line 719
- Test Details: Field trial of seed coating application rates, GA-deficient soybean
- Type: in vivo, Glycine max
- Study Conditions: 0.1 μg compound per seed, seed coating
Kindly state No. 719 Emerged, Light soil for each of the entries shown.
Give bare numbers, in ab.

# Compound, No. 719 Emerged, Light soil / ab
records = [
    ("C=C1C[C@]23C[C@@]1(O)CC[C@H]2[C@@]12C=C[C@H](OC(C)=O)[C@@](C)(C(=O)O1)[C@H]2[C@@H]3C(=O)O [GA3-3-acetate]", 21.0),
]

For the next question, use this compound.
Lab entry: constitutively GA-deficient transgenic dwarf soybean line 719 assay, compound C=C1C[C@]23C[C@@]1(O)CC[C@H]2[C@@]12CC=C[C@@](C)(C(=O)O1)[C@H]2[C@@H]3C(=O)O , No. 719 Emerged, Light soil = 21.7

* * *

Kindly state No. A4922 Emerged, Light soil for each of the entries shown.
- Tested on: wild-type soybean line A4922
- Test Details: Field trial of seed coating application rates, wild-type soybean
- Study Conditions: 0.1 μg compound per seed

# Smiles Record, Measured Endpoint, Value Observed
data = [
    ("C=C1C[C@]23C[C@H]1CC[C@H]2[C@]1(C)CCC[C@@](C)(C(=O)O)[C@H]1[C@@H]3C(=O)O", "No. A4922 Emerged, Light soil", "45.7 c-h"),
    ("C=C1C[C@]23C[C@@]1(O)CC[C@H]2[C@@]12CC=C[C@@](C)(C(=O)O1)[C@H]2[C@@H]3C(=O)O", "No. A4922 Emerged, Light soil", "51.7 bcd"),
    ("C=C1C[C@]23C[C@@]1(O)CC[C@H]2[C@@]12C=C[C@H](O)[C@@](C)(C(=O)O1)[C@H]2[C@@H]3C(=O)O", "No. A4922 Emerged, Light soil", "42.7 e-i"),
]

For the next question, use this molecule.
For C=C1C[C@]23C[C@H]1CC[C@H]2[C@@]12CCC[C@@](C)(C(=O)O1)[C@H]2[C@@H]3C(=O)O the molecule record lists No. A4922 Emerged, Light soil as 48.3 b-e

* * *

- Tested on: wild-type soybeans (line A3237)
- Test Details: Summary of first two greenhouse experiments, elongation of wild-type soybeans
- Study Conditions: 0.25 mg/ml solution (ethanol-water)
Measured Endpoint: Elongation of wild-type soybeans

Illustrative cases are given below, each with its answer.
# Smiles Record, Elongation of wild-type soybeans
measured = [
    ("C=C1C[C@]23C[C@@]1(O)CC[C@H]2[C@@]12CC[C@H](O)[C@@](C)(C(=O)O1)[C@H]2[C@@H]3C(=O)O", "+"),
    ("C=C1C[C@]23C[C@@]1(O)CC[C@H]2[C@@]12CC=C[C@@](C)(C(=O)O1)[C@H]2[C@@H]3C(=O)O", "+"),
    ("C=C1C[C@]23C[C@H]1CC[C@H]2[C@@]12CC[C@H](O)[C@@](C)(C(=O)O1)[C@H]2[C@@H]3C(=O)O", "+"),
    ("C=C1C[C@]23C[C@H]1CC[C@H]2[C@]1(C)CCC[C@@](C)(C(=O)O)[C@H]1[C@@H]3C(=O)O", "−"),
    ("C=C1C[C@]23C[C@@]1(O)CC[C@H]2[C@@]12C=C[C@H](O)[C@@](C)(C(=O)O1)[C@H]2[C@@H]3C(=O)O", "+"),
]

Respectfully, I request Elongation of wild-type soybeans for each entry included below.
1. C=C1C[C@@]23CC[C@H]4[C@@](C)(CCC[C@@]4(C)C(=O)O)[C@@H]2CC[C@@H]1C3
2. C=C1C[C@@]23CC[C@@H]4C(C)(C)CCC[C@@]4(C)[C@@H]2CC[C@@H]1C3
3. C=C1C[C@]23C[C@@]1(O)CC[C@H]2[C@@]12CCC[C@@](C)(C(=O)O1)[C@H]2[C@@H]3C(=O)O
4. C=C1C[C@]23C[C@H]1CC[C@H]2[C@@]12CCC[C@@](C)(C(=O)O1)[C@H]2[C@@H]3C(=O)O

[A]
["−", 0, "+", "+"]
